Attribution: the DeepSol protein solubility set

experiment: soluble on expression in E. coli; label from the status in PepcDB or PDB records
observed-property: soluble on expression in E. coli

>  <seq-text>
MGSDKIHHHHHHMNLKQLEYFMHVAELGSFSKAAMVLDVAQPALSRQVRGLETELRQQLFLRNGRGVALTEAGRRLFDHSVAIMQMVAHAREDLGASRDAPVGRVTIGLPPSIARQLTLPLIDHFKRTLPSARLAIVEGLSSHIIEWVTTGRADVGLVYNPDAQPGIEITPLLQEPLGLVSYAPPSKRRGAAAPLPFKELSKYPLIVPERVHAMRRLLENEAALAGVKLDIAWEVSSVPSIIELVCAGYGHAVLTRSGVAASPRAAELVMRPLIEPAPASALCLVVSATRRPTPLAQHSMRMLTDLVRTLPT

>  <reading>
not soluble

$$$$
>  <seq-text>
MGSDKIHHHHHHMSETVTESYIGSAIVYIDGRDCGNVSGVKLAIDQETKSLPNYRGGGGNADEVTLIKAVKLSGTFYDFNNDNLALAMRGKIDVLTAAAVVDEDITAVLDGLAPTVHMIDTSVAPVVKNTAGDSTYVLDEDYVVSAAGIRALSGGAITAGQALKLSYTSQAGNALQALTESGKTVSVVVDGINDSTGKPWTLKFYKWKPTPTSGLDLIGTDYGSFDIEGAVLADSSIVATGKSKFFVRSAA

>  <reading>
not soluble

$$$$
